Assay: E. coli growth modulation, two-sided OD650, primary screen, E. coli filamentation project, strain DRC41, 24 h (AID 1093);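 note: MC1000 strain lacking acrAB efflux and sulA so SOS filamentation is blocked; test concentration not given here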
Settings: OD650, 24 h, higher = more signal, called active from +8 up or from −8 down
Label 1 when z-score is at or above 0.7; anything below gets 0.

Worked examples follow.
query: Please indicate if the recorded z-score for `O=C(NCC(F)(F)F)[C@@H]1c2ccccc2C(=O)N(CC23CC4CC(CC(C4)C2)C3)[C@H]1c1ccc(CO)cc1` meets or exceeds 0.7.
result: 1

query: Now consider `C=C(C(=O)CC[C@@H](OC(C)=O)c1cccc(OCCO)c1)C(C)C` and answer again.
result: 0

query: # repeat for `CC(C)C(=C=CC[C@@H](O)c1cccc(OCCO)c1)CCO`
result: 1

New cases:
query: Could you please find out whether `CN(C)CCCC[C@@H]1NC(=O)[C@@H]2C[C@H](C(=O)NCCCCCCNC(=O)CS)[C@H](c3cccc(OCCO)c3)N2C1=O` has z-score that meets 0.7 or exceeds it?
result: 0

query: How about this compound: `COC(=O)[C@]1(CO)N=C(c2ccc(OCCCO)cc2)O[C@@H]1c1ccccc1CN=[N+]=[N-]`
result: 0

query: Same again, this time with `CN(C)C(=O)[C@]1(Cc2ccccc2)N=C(c2ccc(OCCCO)cc2)O[C@@H]1c1ccccc1`
result: 0

query: Would you kindly repeat that for CC(C)(C)N1CC=CC23O[C@@H]4/C=C\CCCOC(=O)C4[C@H]2C(=O)N(CCCCCCO)[C@@H]3C1=O (some centres undefined) ?
result: 1

query: And the next one, `O=C1O[C@H](c2ccccc2)[C@H](c2ccccc2)N2[C@H]1[C@@H](C(=O)N1CCN(c3ncccn3)CC1)[C@]1(C(=O)Nc3ccccc31)[C@H]2c1ccc(O)cc1` ?
result: 1

query: Please answer likewise for `COC(=O)[C@@]1(Cc2ccc(OC)cc2)[C@H]2c3cc(C(=O)N4CCCC4)n(CCc4ccc(OC)c(Br)c4)c3C[C@H]2CN1C(=O)c1ccccc1`
result: 0

query: Also, CC(=O)c1ccc(C(O)C2C=CC3C(=O)NC(=O)C3N2Nc2ccc(Cl)cc2Cl)cc1 (centres undefined) please.
result: 0

query: Again, but for `COCCOC(=O)N1C(=O)[C@@]2(c3cc(C#CC4(O)CCCCCC4)ccc31)[C@H](c1ccccc1OCCO)N1[C@H](c3ccccc3)[C@H](c3ccccc3)OC(=O)[C@H]1[C@@H]2C(=O)N1CCCCCCC1`
result: 0

query: Try the compound `CCCC[C@H]1OB(O)C[C@H]2C1=C(C)C[C@H]1C(=O)C=CC(=O)[C@H]12`
result: 0

query: Request: CCCCCN1CC=CC23O[C@@H]4C=CCOC(=O)[C@@H]4[C@H]2C(=O)N(CCCCCO)[C@@H]3C1=O (some centres undefined)
result: 1

query: CCN(CC)c1ccc(N2CC=CC34O[C@@H]5C=CCOC(=O)[C@@H]5[C@H]3C(=O)N(CCO)[C@@H]4C2=O)cc1 (some centres undefined) ?
result: 1

These entries and their values trace back to PubChem BioAssay.
